All values here come from patent US8383581B2.

Biological target: T1, rat PTH-1R (rat PTHR endogenously expressed on UMR-106 rat osteosarcoma cells) (rat, UniProt P25961 27-591)
T1 sequence (looked up): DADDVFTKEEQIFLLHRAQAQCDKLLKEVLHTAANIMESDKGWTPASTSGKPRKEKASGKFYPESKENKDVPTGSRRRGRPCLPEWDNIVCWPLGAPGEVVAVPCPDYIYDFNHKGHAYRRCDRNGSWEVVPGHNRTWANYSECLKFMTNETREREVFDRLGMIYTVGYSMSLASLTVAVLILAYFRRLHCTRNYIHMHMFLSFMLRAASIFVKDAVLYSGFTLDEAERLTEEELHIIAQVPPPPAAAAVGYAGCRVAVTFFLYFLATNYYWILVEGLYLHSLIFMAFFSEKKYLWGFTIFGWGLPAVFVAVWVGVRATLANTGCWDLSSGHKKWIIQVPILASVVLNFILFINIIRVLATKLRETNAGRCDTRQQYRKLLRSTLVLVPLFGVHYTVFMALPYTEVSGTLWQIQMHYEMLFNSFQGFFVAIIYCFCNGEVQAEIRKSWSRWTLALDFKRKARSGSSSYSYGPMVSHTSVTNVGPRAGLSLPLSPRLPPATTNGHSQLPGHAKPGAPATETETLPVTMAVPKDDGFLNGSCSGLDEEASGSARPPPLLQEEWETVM
Assay: cell-based or functional assay
*1 amine or outer side, *2 acyl side, *3 side chain or, on linkers, in order; H or OH if unused. Where no end group is shown, it is not given here. [ ]: non-standard residue; d: D form. The star is where a group is joined. αMe‑APPA = 2-amino-2-methyl-5-phenylpentanoic acid, C[C@@](CCCc1ccccc1)(N[*:1])C(=O)[*:2]; Bip(2'-Et-4'-OMe) = CCc1cc(OC)ccc1-c1ccc(C[C@H](N)C(=O)O)cc1; Arg(NO2) = N=C(NCCC[C@H](N)C(=O)O)N[N+](=O)[O-]; αMePhe(2,6-F2) = C[C@](N)(Cc1c(F)cccc1F)C(=O)O; αMePhe(2-F) = C[C@](N)(Cc1ccccc1F)C(=O)O; αMeNle = CCCC[C@](C)(N[*:1])C(=O)[*:2]; αMe‑Bip(OMe) = α-methylated Bip(OMe); hhPhe = N[C@@H](CCCc1ccccc1)C(=O)O; hArg = N=C(N)NCCCC[C@H](N)C(=O)O; hCit = NC(=O)NCCCC[C@H](N)C(=O)O; αMeF = C[C@](N)(Cc1ccccc1)C(=O)O; Cit = NC(=O)NCCC[C@H](N)C(=O)O; NMeM = CN[C@@H](CCSC)C(=O)O; Decanoyl = CCCCCCCCCC(=O)*; Nle = CCCC[C@H](N)C(=O)O; Orn = NCCC[C@H](N)C(=O)O; Ac5c = NC1(C(=O)O)CCCC1; Ac3c = NC1(C(=O)O)CC1; Aib = CC(C)(N)C(=O)O
Attribute: cAMP released with respect to control, 1 nM peptide, UMR-106 cells
reportedProperty: cAMP released with respect to control, 1 nM peptide, UMR-106 cells

# binder, valueReported
data = [
    ("[Ac5c]V[Aib]EIQ[αMePhe(2-F)][Nle]HQ[Orn][Aib][Cit][αMePhe(2,6-F2)] [Seq. ID. 292]", "39 percent of control"),
    ("[Aib]V[Aib]EIQL[Nle]HQ[hArg]A[hArg][αMe‑Bip(OMe)][hhPhe] [Seq. ID. 899]", "38 percent of control"),
    ("[Ac3c]V[Aib]EIQL[NMeM]HQ[hArg]AK(Decanoyl)[Bip(2'-Et-4'-OMe)] [Seq. ID. 678]", "48 percent of control"),
    ("[Aib]V[Aib]EIQ[αMePhe(2,6-F2)][Nle]HQ[hCit]A[Cit][Bip(2'-Et-4'-OMe)][hhPhe] [Seq. ID. 860]", "22 percent of control"),
    ("[Aib]V[Aib]EIQ[αMePhe(2,6-F2)][Nle]HQ[hCit][Aib][Arg(NO2)][αMePhe(2,6-F2)] [Seq. ID. 470]", "36 percent of control"),
    ("[Ac5c]V[Ac5c]EIQ[αMePhe(2,6-F2)][Nle]HQ[hArg][Aib][αMePhe(2,6-F2)][αMePhe(2,6-F2)] [Seq. ID. 238]", "38 percent of control"),
    ("V[Ac3c]V[Aib]EIQL[αMeNle]HQ[hArg]A[hArg][αMePhe(2-F)][αMe‑APPA] [Seq. ID. 935]", "38 percent of control"),
    ("[Ac3c]V[Aib]EIQ[αMePhe(2,6-F2)][Nle]HQ[hArg][Aib]K[αMeF] [Seq. ID. 41]", "26 percent of control"),
    ("[Aib]V[Aib]EIQ[αMePhe(2,6-F2)][Nle]HQ[hCit][Aib][αMePhe(2,6-F2)][Bip(2'-Et-4'-OMe)][hhPhe] [Seq. ID. 872]", "19 percent of control"),
    ("[Aib]V[Aib]EIQ[αMePhe(2,6-F2)][Nle]HQ[Aib][Aib][Arg(NO2)][αMePhe(2,6-F2)] [Seq. ID. 598]", "38 percent of control"),
    ("[Aib]V[Aib]EIQ[αMePhe(2-F)][Nle]HQ[hCit][Aib][Cit][αMePhe(2,6-F2)] [Seq. ID. 418]", "29 percent of control"),
    ("[Aib]V[Aib]EIQ[αMePhe(2,6-F2)][Nle]HQ[αMePhe(2,6-F2)]A[Aib][αMePhe(2,6-F2)] [Seq. ID. 501]", "28 percent of control"),
]
